These measurements were taken from ChEMBL document CHEMBL1250471.

# Test system: Mycobacterium tuberculosis
# assayComment: Antimycobacterial activity against Mycobacterium tuberculosis H37Rv ATCC 27294 microplate alamar blue assay
# Format: functional
quantity: IC90
Returns: string containing the number followed by the unit.

Examples from the recorded data:
[
  {
    "compound": "Cc1c(C(=O)NCc2ccc(Br)cc2)[n+]([O-])c2ccccc2[n+]1[O-]",
    "testTarget": "Mycobacterium tuberculosis",
    "IC90": "15.6 µg/mL"
  },
  {
    "compound": "Cc1ccc2c(c1)[n+]([O-])c(C(=O)NCC(c1ccccc1)c1ccccc1)c(C)[n+]2[O-]",
    "testTarget": "Mycobacterium tuberculosis",
    "IC90": "16.8 µg/mL"
  },
  {
    "compound": "CO[C@H]1/C=C/O[C@@]2(C)Oc3c(C)c(O)c4c(O)c(c(/C=N/N5CCN(C)CC5)c(O)c4c3C2=O)NC(=O)/C(C)=C\\C=C\\[C@H](C)[C@H](O)[C@@H](C)[C@@H](O)[C@@H](C)[C@H](OC(C)=O)[C@@H]1C [RIFAMPIN]",
    "testTarget": "Mycobacterium tuberculosis",
    "IC90": "0.015 µg/mL"
  },
  {
    "compound": "Cc1c(C(=O)NCc2ccc(C(F)(F)F)cc2)[n+]([O-])c2cc(Cl)ccc2[n+]1[O-]",
    "testTarget": "Mycobacterium tuberculosis",
    "IC90": "6.13 µg/mL"
  },
  {
    "compound": "Cc1c(C(=O)NCc2ccc(Br)cc2)[n+]([O-])c2cc(Cl)ccc2[n+]1[O-]",
    "testTarget": "Mycobacterium tuberculosis",
    "IC90": "5.33 µg/mL"
  },
  {
    "compound": "Cc1ccc2c(c1)[n+]([O-])c(C(=O)NCc1ccc(Cl)cc1)c(C)[n+]2[O-]",
    "testTarget": "Mycobacterium tuberculosis",
    "IC90": "14.6 µg/mL"
  },
  {
    "compound": "Cc1c(C(=O)NCC(c2ccccc2)c2ccccc2)[n+]([O-])c2cc(Cl)c(Cl)cc2[n+]1[O-]",
    "testTarget": "Mycobacterium tuberculosis",
    "IC90": "66.5 µg/mL"
  }
]

Consider now this further compound.
So, Cc1c(C(=O)NCc2ccc3c(c2)OCO3)[n+]([O-])c2ccccc2[n+]1[O-] ? Its IC90 was 22.8 µg/mL

----------
# System: Mycobacterium tuberculosis
# assayComment: Antimycobacterial activity against Mycobacterium tuberculosis H37Rv ATCC 27294 microplate alamar blue assay
# Type: functional
For each record, check the reported IC90: if it is below 20 µg/mL write 1, else write 0.

[
  {
    "structureSmiles": "Cc1ccc2c(c1)[n+]([O-])c(C(=O)NCc1ccccc1)c(-c1ccccc1)[n+]2[O-]",
    "groupLabel": 1
  },
  {
    "structureSmiles": "O=C(Nc1ccccc1)c1c(-c2ccccc2)[n+]([O-])c2ccccc2[n+]1[O-]",
    "groupLabel": 0
  },
  {
    "structureSmiles": "O=C(Nc1ccccc1)c1c(-c2ccccc2)[n+]([O-])c2cc(Cl)c(Cl)cc2[n+]1[O-]",
    "groupLabel": 1
  },
  {
    "structureSmiles": "O=C(NCc1ccccc1)c1c(-c2ccccc2)[n+]([O-])c2ccc(F)cc2[n+]1[O-]",
    "groupLabel": 1
  },
  {
    "structureSmiles": "O=C(NCCc1ccccc1)c1c(-c2ccccc2)[n+]([O-])c2ccc(Cl)cc2[n+]1[O-]",
    "groupLabel": 1
  }
]

# ---- query compound ----
(Q) Say whether its IC90 is strictly beneath 20 µg/mL. Entry: Cc1ccc(CNC(=O)c2c(C)[n+]([O-])c3ccc(Cl)cc3[n+]2[O-])cc1
(A) 0

----------
# Tested on: Mycobacterium tuberculosis
# assayComment: Antimycobacterial activity against Mycobacterium tuberculosis H37Rv ATCC 27294 microplate alamar blue assay
# Format: functional
// values below are reported IC90
Report only the number, with the unit µg/mL understood.

Examples from the recorded data:
[
  {
    "structureSmiles": "O=C(NCc1ccccc1)c1c(-c2ccccc2)[n+]([O-])c2cc(Cl)c(Cl)cc2[n+]1[O-]",
    "quantity": "IC90",
    "resultValue": 25.4
  },
  {
    "structureSmiles": "Cc1c(C(=O)NCC(c2ccccc2)c2ccccc2)[n+]([O-])c2ccccc2[n+]1[O-]",
    "quantity": "IC90",
    "resultValue": 16
  }
]

So, Cc1c(C(=O)NCc2ccc(Br)cc2)[n+]([O-])c2cc(Cl)c(Cl)cc2[n+]1[O-] ? Its IC90 was 6.92
